Just for reference, PubChem BioAssay is where these values come from.

Some compounds, each annotated with its measured inhibition.
- assayDetails: blockers of RIG-like receptor reporter activation – cell-based, Sendai virus stimulus, luciferase, 10K MLSCN set, TLR/RLR signaling modifier project, primary screen (AID 602276);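 note: firefly luciferase from ISG56 promoter only with Renilla not read in this screen; 0% = Sendai virus plus DMSO and 100% = medium plus DMSO without virus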
- testSettings: HEK293 RL24 IRF3 luciferase reporter, at 10 µM, stronger effect = higher value
Value expressed in %; do not type the unit.

Here is how some compounds turned out for inhibition.
compound	unitOfMeasure	inhibition
COC(=O)CC1(Cc2ccccc2)C(=O)NC(=O)NC1=O	%	17.2
COc1ccc(OC)c(C2=NOC(C(=O)N3CCC4(CC3)OCCO4)C2)c1 (stereo not drawn)	%	10.6
Cc1cccc(N2CCc3c2nc2ccccc2c3N)c1	%	15.5
CC(C)OCCCNC(=O)c1c(N)n(CC2CCCO2)c2nc3ccccc3nc12 (stereo not drawn)	%	11.4
C[N+]1(C)CCN(c2ccccc2)CC1	%	0.511

Query: // query inhibition value for entry "C[C@H]1CCCC(=O)CCC/C=C/c2cc(O)cc(O)c2C(=O)O1"
Reply: 13.5

Query: // query inhibition value for entry "Cc1cccc(-n2c(O)c(C=NCCCN3CCOCC3)c(=O)[nH]c2=O)c1C"
Reply: 0.794

Query: // query inhibition value for entry O=C(C1CCCN(S(=O)(=O)c2cccc3nsnc23)C1)N1CCC2(CC1)OCCO2 (stereo not drawn)
Reply: 16.9

Query: // query inhibition value for entry C[C@H]1CCC/C=C/C2C[C@H](O)CC2[C@H](O)/C=C/C(=O)O1 (stereo partly drawn)
Reply: -44.8

Query: // query inhibition value for entry "Cc1ccc(CC2C(=O)N(C)C(=O)N(C)C2=O)s1"
Reply: 1.08

Query: // query inhibition value for entry "COc1ccc(CCn2c(O)c(C=NCc3cccnc3)c(=O)[nH]c2=O)cc1OC"
Reply: 19.4

Query: // query inhibition value for entry "COC(=O)c1c(C)n(Cc2ccc3c(c2)OCO3)c2ccc(O)cc12"
Reply: -0.687

Query: // query inhibition value for entry CCC(COC(=O)c1cc(OC)c(OC)c(OC)c1)(c1ccccc1)N(C)C (stereo not drawn)
Reply: 1.96

* * *

Some compounds, each annotated with its measured nuclei count.
- assayDetails: reduction of polyQ htt aggregates in cells – imaging, exon1htt(103Q)mCFP cells, high-content imaging, primary screen (AID 483);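 note: compound exposure lasted 3 days before fixation; percent of the per-plate median nuclei count of sample wells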
- testSettings: exon1htt(103Q)mCFP cell line, aggregate imaging, at 2 µM; measured here: cell count, toxicity
Value expressed in %; do not type the unit.

Query: // query nuclei count value for entry "CCc1ccc(OCCCN=C(C)c2c(O)n(C)c(=O)n(C)c2=O)cc1"
Reply: 84.3

Query: // query nuclei count value for entry "Nc1ccccc1C(=O)OC1CSC1"
Reply: 102

Query: // query nuclei count value for entry CCOC(=O)C1=C(N)OC(C)=C(C(=O)OCCOC)C12C(=O)Nc1ccccc12 (stereo not given)
Reply: 91.4

Query: // query nuclei count value for entry "CCOc1cccc(N2C(=O)CC(=O)NC2=O)c1"
Reply: 109

Query: // query nuclei count value for entry "COc1ccc(CC2C(=O)NC(=O)NC2=O)c(OC)c1"
Reply: 105

Query: // query nuclei count value for entry "CCOc1c(P(=S)(N(C)C)N(C)C)c(C)nn1-c1ccccc1"
Reply: 108

Query: // query nuclei count value for entry "Cc1nn(Cc2ccccc2Cl)c(Cl)c1C(=O)OCC(=O)NCc1ccco1"
Reply: 105
